Values were extracted from the RNAGym collection of RNA variant scans (doi:10.7554/elife.80360).

B1: HDV Ribozyme (parent)
chain: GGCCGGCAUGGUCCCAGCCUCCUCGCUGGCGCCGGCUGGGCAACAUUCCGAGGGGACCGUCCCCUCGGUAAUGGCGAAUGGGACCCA

- Variants of: B1
- method summary: self-cleavage, relative activity (ratio to wild type); higher = more cleavage; co-transcriptional
readout name: self-cleavage
Form: value (number only, do not type unit).

Return reported self-cleavage; argument: C75U G76C
0.271

Lookup G10A C48G
0.671

Lookup U23A A42G
0.499

Lookup C66A A70G
0.745

Lookup C21U G53A
0.116

Lookup C58A C84U
0.919

Lookup U9A C26A
0.76

Lookup C44U G76U
0.847

Lookup G35C U65C
0.219

Lookup G17A G80A
0.205

Lookup C24U G81C
0.111

Lookup U9G U27G
0.935

Lookup C44A G80U
0.118

Lookup G10C U72C
0.289

Lookup G28C A78C
0.0852

Lookup G17A C62A
0.886

Lookup C22U G81C
0.237

Lookup C4A U47C
0.293

Lookup G39C A83G
0.317

Lookup A70C U72A
0.653

Lookup C24U C66U
0.629

Lookup A45C G50U
0.494
